Recorded values, source patent US11033535B2.

Assay: Pharmacokinetic evaluation following a single oral and intravenous administration
Type: in vivo, CD1 mouse
Settings: CD1, mouse, plasma, po, 5 mg/kg, Table 12, PO Dose: 5 mg/kg, Mouse 5; read-out: Cmax
observedProperty: Cmax (ng/mL)
Answers are plain numbers, in ng/mL.

Query :: State the recorded Cmax for this entry: CC(=O)N[C@@H](Cc1ccc(CN(C)C)cc1)c1nnc(-c2cccc(OC(F)(F)F)c2)s1
Result :: 121

###

Assay: Pharmacokinetic evaluation following a single oral and intravenous administration
Assay type: in vivo, CD1 mouse
Settings: CD1, mouse, plasma, po, 5 mg/kg, Table 6, PO Dose: 5 mg/kg, Mouse 5; read-out: AUCInf
observedProperty: AUC(0-inf) (ng·h/mL)
Give bare numbers, in ng·h/mL.

Query :: State the recorded AUC(0-inf) for this entry: CNCc1ccc(C[C@H](NC(C)=O)c2nnc(-c3cccc(OC(F)(F)F)c3)s2)cc1
Result :: 2060

###

Assay: Pharmacokinetic evaluation following a single oral and intravenous administration
Assay type: in vivo, CD1 mouse
Conditions: CD1, mouse, plasma, po, 5 mg/kg, Table 11, PO Dose: 5 mg/kg, 24 h, Mouse 6; read-out: Concentration
observedProperty: concentration at 24 h
Report as: number unit

Query :: State the recorded concentration at 24 h for this entry: CC(=O)N[C@@H](Cc1ccc(CN(C)C)cc1)c1nnc(-c2cccc(OC(F)(F)F)c2)s1 [Compound 42320]
Result :: 3.26 ng/mL

###

Experiment: Pharmacokinetic evaluation following a single oral and intravenous administration
Assay type: in vivo, CD1 mouse
Conditions: Table 4, IV Dose: 1 mg/kg, Mouse 2
observedProperty: AUClast/D (h·ng/mL per mg/kg)
Give bare numbers, in h·ng/mL per mg/kg.

Query :: State the recorded AUClast/D for this entry: CNCc1ccc(C[C@H](NC(C)=O)c2nnc(-c3cccc(OC(F)(F)F)c3)s2)cc1
Result :: 389

###

Test: Pharmacokinetic evaluation following a single oral and intravenous administration
Assay type: in vivo, CD1 mouse
Settings: CD1, mouse, plasma, po, 5 mg/kg, Table 12, PO Dose: 5 mg/kg, mean; read-out: T1/2, Mean (converted)
observedProperty: half-life (h)
Numbers only, in h.

Query :: State the recorded half-life for this entry: CC(=O)N[C@@H](Cc1ccc(CN(C)C)cc1)c1nnc(-c2cccc(OC(F)(F)F)c2)s1
Result :: 4.1

###

Please respond with reported IC50 for every item in the list.
Biological target: (Homo sapiens, UniProt P07996)
Sequence (P07996 whole entry): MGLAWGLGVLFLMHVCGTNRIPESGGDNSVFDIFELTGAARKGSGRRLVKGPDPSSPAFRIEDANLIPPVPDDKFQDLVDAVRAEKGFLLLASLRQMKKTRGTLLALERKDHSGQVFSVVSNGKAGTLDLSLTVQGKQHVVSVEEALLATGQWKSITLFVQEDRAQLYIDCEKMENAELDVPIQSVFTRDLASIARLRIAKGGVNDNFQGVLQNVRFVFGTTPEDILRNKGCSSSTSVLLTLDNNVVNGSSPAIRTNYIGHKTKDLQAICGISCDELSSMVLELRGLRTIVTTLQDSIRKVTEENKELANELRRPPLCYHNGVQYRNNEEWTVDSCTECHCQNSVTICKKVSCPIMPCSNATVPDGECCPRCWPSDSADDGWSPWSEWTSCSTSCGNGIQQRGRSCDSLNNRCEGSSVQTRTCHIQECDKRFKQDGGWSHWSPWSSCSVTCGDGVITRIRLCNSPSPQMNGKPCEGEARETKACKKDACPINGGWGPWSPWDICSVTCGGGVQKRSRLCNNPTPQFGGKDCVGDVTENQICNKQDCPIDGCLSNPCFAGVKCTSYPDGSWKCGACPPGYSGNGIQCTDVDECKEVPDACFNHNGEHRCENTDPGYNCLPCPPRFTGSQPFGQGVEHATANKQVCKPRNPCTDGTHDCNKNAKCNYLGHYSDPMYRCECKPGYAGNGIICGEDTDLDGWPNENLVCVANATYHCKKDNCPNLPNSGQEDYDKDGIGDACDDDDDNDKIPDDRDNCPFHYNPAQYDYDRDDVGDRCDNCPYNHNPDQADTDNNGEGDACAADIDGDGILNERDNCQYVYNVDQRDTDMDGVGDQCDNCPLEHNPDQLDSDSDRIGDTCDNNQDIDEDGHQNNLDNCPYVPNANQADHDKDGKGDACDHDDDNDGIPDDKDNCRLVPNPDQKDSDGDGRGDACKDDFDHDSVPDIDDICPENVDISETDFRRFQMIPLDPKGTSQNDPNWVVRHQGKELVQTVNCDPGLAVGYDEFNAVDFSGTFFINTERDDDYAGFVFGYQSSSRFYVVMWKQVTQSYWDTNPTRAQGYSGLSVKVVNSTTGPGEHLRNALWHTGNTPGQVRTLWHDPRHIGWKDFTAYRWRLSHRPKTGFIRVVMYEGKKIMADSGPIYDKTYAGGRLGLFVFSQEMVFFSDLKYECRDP
Test: Secondary Assay, inhibitory activity of thiadiazole and oxadiazole analogs as TGF-beta inhibitors
Format: biochemical
Conditions: Table I
Give bare numbers, in nM.

Query :: State the recorded IC50 for this entry: CC(=O)N[C@H](Cc1ccc(CN)cc1)c1nnc(-c2cccc(OC(F)(F)F)c2)s1 (single isomer, unassigned)
Result :: 26.9

Query :: Input COc1cc(C)cc(-c2nnc(C(Cc3ccc(CN)cc3)NC(C)=O)s2)c1 (stereo not drawn)
Result :: 8

Let us move to another entry and its IC50.
Query :: State the recorded IC50 for this entry: CC(=O)NC(Cc1ccc(N)cc1)c1nnc(-c2cccc(OC(F)(F)F)c2)s1 (stereo not drawn)
Result :: 15
